Reference for the values: PubChem BioAssay (NCI)

test system: SF-539 CNS; assay: NCI-60 one-dose screen, 48 h (100 = growth as untreated, 0 = no growth, -100 = all killed); details: 10 µM unless noted
The panel holds about 83,000 compounds, 20% with a hit somewhere; the sample as a whole holds those more often.
# growth listing for each entry below
// note: answer is a bare numeric in %

COc1cc2c(cc1-c1c(C)noc1C)ncc1nc(C3CCCCC3)n(C3CCC(OC(F)F)CC3)c12 (configuration not stated) :: 47
C[n+]1cc2cc(C(N)=O)[nH]c3c(=N)c(Cl)c(N)c1c23 :: 90.6
COc1ccc(-c2cc(-c3ccc(Nc4nc(Nc5ccc(Cl)cc5)nc(Nc5ccc(Cl)cc5)n4)cc3)nc(N)c2C#N)cc1 :: -48.7
NC(=N\N=C/c1cccc([N+](=O)[O-])c1)/C(N)=N\N=C/c1cccc([N+](=O)[O-])c1 :: 89.1
Cc1ccc(Cc2cnc(NC(=O)c3ccc4noc(-c5ccccc5)c4c3)s2)cc1 :: 94.7

*Q* Which growth is reported for this compound? `C[C@H]1[C@H]2[C@H]3CC[C@@H]4[C@@]5(C)C/C(=C/c6cccnc6)C(=O)C(C)(C)[C@@H]5CC[C@@]4(C)[C@]3(C)CC[C@]23CO[C@]1(C)[C@@H](C(=O)/C=C\c1cccnc1)C3`
*A* -32.4

*Q* Consider next the compound Cc1cc(O)c(C2=NN(c3ccc(S(N)(=O)=O)cc3)C(c3ccccc3Cl)C2)cc1Cl (configuration not stated) in the same way.
*A* 41.9

*Q* Consider next the compound `COC1=CC(=O)C[C@@H](C)[C@]12Oc1c(Cl)c(OC)cc(OC)c1C2=O` in the same way.
*A* 104

*Q* Consider next the compound `O=C(COc1ccc(/C=C2\Oc3ccccc3C2=O)cc1)Nc1nc2c(s1)CCCC2` in the same way.
*A* -95.7

*Q* Consider next the compound O=[N+]([O-])c1ccc(C2CC(c3ccccc3)=Nc3ccccc3S2)cc1 (configuration not stated) in the same way.
*A* 101

*Q* Consider next the compound `Cc1nc2c(c(N3CCCc4ccccc43)n1)CCC2` in the same way.
*A* 1.1

*Q* Consider next the compound `N#Cc1c(N)nn(C(=O)c2ccc(NC(=O)c3ccccn3)cc2)c1-c1ccc(Cl)cc1` in the same way.
*A* -27.8

*Q* Consider next the compound `COC(=O)[C@]12CC[C@@H](C)[C@H](C)[C@@H]1C1=CC[C@@H]3[C@@]4(C)C(C=O)=C[C@@](C)(COS(C)(=O)=O)[C@@H]4C(=O)C[C@@]3(C)[C@]1(C)CC2` in the same way.
*A* 65.7

*Q* Consider next the compound `CC(C)(C)CC(C)(C)Nc1c(-c2ccncc2)nc2cnccn12` in the same way.
*A* 93.8

*Q* Consider next the compound `COc1ccc(-c2nc3sccn3c2-c2cc(-c3cc(OC)c(OC)c(OC)c3)on2)cc1` in the same way.
*A* 73.7

*Q* Consider next the compound `CCCCCCCCCCCCCCCCCC1=NCCN1CCOC1=C(Cl)C(=O)c2ccccc2C1=O` in the same way.
*A* 104

*Q* Consider next the compound CC1SC(c2ccc(OCc3ccccc3)cc2)N(NC(=O)C(O)(c2ccccc2)c2ccccc2)C1=O (configuration not stated) in the same way.
*A* 74.4
